- Assay Target: UniProt P08183
- Sequence (P08183 whole entry): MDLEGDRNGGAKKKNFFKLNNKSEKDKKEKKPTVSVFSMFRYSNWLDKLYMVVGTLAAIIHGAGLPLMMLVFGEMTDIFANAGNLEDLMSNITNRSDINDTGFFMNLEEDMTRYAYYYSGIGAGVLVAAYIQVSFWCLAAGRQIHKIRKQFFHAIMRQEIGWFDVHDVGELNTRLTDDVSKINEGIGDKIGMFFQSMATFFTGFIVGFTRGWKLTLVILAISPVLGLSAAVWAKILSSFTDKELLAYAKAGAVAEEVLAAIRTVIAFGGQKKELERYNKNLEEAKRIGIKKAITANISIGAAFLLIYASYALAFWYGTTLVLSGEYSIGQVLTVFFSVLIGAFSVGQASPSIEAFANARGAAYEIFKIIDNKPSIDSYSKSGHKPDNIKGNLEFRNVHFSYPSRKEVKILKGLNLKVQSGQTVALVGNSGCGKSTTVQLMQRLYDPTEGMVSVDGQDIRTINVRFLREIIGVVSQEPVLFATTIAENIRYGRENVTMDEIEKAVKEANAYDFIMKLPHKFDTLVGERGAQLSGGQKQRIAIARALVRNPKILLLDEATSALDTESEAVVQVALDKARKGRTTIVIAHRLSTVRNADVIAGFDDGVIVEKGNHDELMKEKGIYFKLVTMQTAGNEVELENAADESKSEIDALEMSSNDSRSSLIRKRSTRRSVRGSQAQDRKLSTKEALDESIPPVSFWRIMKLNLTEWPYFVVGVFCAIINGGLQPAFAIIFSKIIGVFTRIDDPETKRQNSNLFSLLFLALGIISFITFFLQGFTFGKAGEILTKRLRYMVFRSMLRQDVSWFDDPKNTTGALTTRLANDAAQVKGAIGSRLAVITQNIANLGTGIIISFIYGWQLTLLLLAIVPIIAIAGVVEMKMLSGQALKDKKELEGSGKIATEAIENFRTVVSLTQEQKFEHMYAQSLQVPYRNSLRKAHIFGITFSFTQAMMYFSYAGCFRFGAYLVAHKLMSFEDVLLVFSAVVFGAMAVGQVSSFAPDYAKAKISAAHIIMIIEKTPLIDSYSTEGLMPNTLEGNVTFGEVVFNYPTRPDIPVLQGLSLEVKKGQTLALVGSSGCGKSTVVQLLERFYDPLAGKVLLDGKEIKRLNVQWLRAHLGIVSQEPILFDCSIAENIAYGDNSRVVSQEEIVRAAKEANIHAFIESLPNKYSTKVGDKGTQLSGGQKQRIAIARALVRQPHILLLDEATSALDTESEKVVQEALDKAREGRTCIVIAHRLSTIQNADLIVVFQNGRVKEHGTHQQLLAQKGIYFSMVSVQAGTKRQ
- Test Details: Inhibition of human MDR1 expressed in mouse NIH/3T3 cells assessed as reduction in daunomycin IC50 at 3 uM by MTT assay
- Assay type: cell-based
- Particulars: nih3t3, 3 µM
A collection of molecules and their measured fold change (FC)
Please state the value as a number alone, without comment.

Below, each entry is followed by its recorded fold change (FC) result.
Query Smiles: CC(=O)O[C@H]1CC[C@](C)(O)[C@]23OC(C)(C)[C@H]([C@H](OC(=O)/C=C/c4ccccc4)[C@H](OC(=O)c4ccccc4)[C@]12C)[C@H]3OC(=O)c1ccccc1
Metric: fold change (FC)
Value Reported: 10.1
//
Query Smiles: CC(=O)O[C@H]1CC[C@](C)(OC(=O)CN2CCOCC2)[C@]23OC(C)(C)[C@H]([C@H](OC(=O)/C=C/c4ccccc4)[C@H](OC(=O)c4ccccc4)[C@]12C)[C@H]3OC(C)=O
Metric: fold change (FC)
Value Reported: 10.9
//
Query Smiles: CC(=O)O[C@H]1CC[C@](C)(OC(=O)CNCC(C)C)[C@]23OC(C)(C)[C@H]([C@H](OC(=O)/C=C/c4ccccc4)[C@H](OC(=O)c4ccccc4)[C@]12C)[C@H]3OC(C)=O
Metric: fold change (FC)
Value Reported: 15.1

Query string: Look up fold change (FC) with UniProt P08183 for this molecule: CC(=O)O[C@H]1CC[C@](C)(O)[C@]23OC(C)(C)[C@H]([C@H](OC(=O)/C=C/c4ccccc4)[C@H](OC(=O)c4ccccc4)[C@]12C)[C@H]3OC(=O)N(C)C
Result string: 13.9

Query string: Now consider CC(=O)O[C@H]1CC[C@](C)(O)[C@]23OC(C)(C)[C@H]([C@H](OC(=O)/C=C/c4ccccc4)[C@H](OC(=O)c4ccccc4)[C@]12C)[C@H]3OC(=O)c1cccnc1 and answer again.
Result string: 14.7

Measured values drawn from ChEMBL document CHEMBL3774328 for this set.
